- EXPERIMENT_SUMMARY: chemical genetic growth profiling, strain panel (AID 1159580);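 note: tested at 20 µM; growth read once vehicle control cultures reached saturation at 30 °C; 1 = growth at the plate median or of vehicle wells; lower values mean less growth of the strain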
- MEASUREMENT_CONTEXT: S. cerevisiae deletion strains, growth OD, locus YOR231W, strain MKK1, active compounds read low
About 2,000 (36%) of roughly 5,500 compounds were called active. About 18% were inconclusive and are not listed. This is one part of the list.
OBSERVABLE: normalized growth
Numbers only.

Working through the 3 molecules below one at a time, give normalized growth for each.
1. OCCN1C[C@@H](O)[C@@H](O)C(O)C1CO (stereo partly drawn)
2. Nc1nc2ccc(OC(F)(F)F)cc2s1
3. COc1ccc2c3c1O[C@H]1C[C@@H](O)C=C[C@@]31CCN(C)C2

RESULT:
1: 1.01; 2: 0.999; 3: 0.987
